Assay Details: in vivo
Protocol Conditions: male, NODSCID 1L2RγKO, mouse, iv, total radioactivity, Salivary uptake
Observed Property: tissue uptake at 1 h (%ID/g)
Kindly answer with a numeric value in %ID/g, unit omitted.

Name the recorded tissue uptake at 1 h of the item O=C(O)CC[C@H](NC(=O)N[C@@H](CCCCNC(=O)[C@H](Cc1c2ccccc2cc2ccccc12)NC(=O)[C@H]1CC[C@H](CNC(=O)CN2CCN(CC(=O)O)CCN(CC(=O)O)CCN(CC(=O)O)CC2)CC1)C(=O)O)C(=O)O [68Ga-HTK03041, metal not drawn] in your answer.
4.99

Name the recorded tissue uptake at 1 h of the item O=C(O)C[C@H](NC(=O)N[C@@H](CCCCNC(=O)[C@H](Cc1c2ccccc2cc2ccccc12)NC(=O)[C@H]1CC[C@H](CNC(=O)CN2CCN(CC(=O)O)CCN(CC(=O)O)CCN(CC(=O)O)CC2)CC1)C(=O)O)C(=O)O [68Ga-HTK03161, metal not drawn] in your answer.
0.23

Name the recorded tissue uptake at 1 h of the item O=C(O)CCC[C@H](NC(=O)N[C@@H](CCCCNC(=O)[C@H](Cc1ccc2ccccc2c1)NC(=O)[C@H]1CC[C@H](CNC(=O)CN2CCN(CC(=O)O)CCN(CC(=O)O)CCN(CC(=O)O)CC2)CC1)C(=O)O)C(=O)O [68Ga-HTK03169, metal not drawn] in your answer.
0.14

Name the recorded tissue uptake at 1 h of the item O=C(O)CSC[C@H](NC(=O)N[C@@H](CCCCNC(=O)[C@H](Cc1c2ccccc2cc2ccccc12)NC(=O)[C@H]1CC[C@H](CNC(=O)CN2CCN(CC(=O)O)CCN(CC(=O)O)CCN(CC(=O)O)CC2)CC1)C(=O)O)C(=O)O [68Ga-HTK03177, metal not drawn] in your answer.
0.22

Name the recorded tissue uptake at 1 h of the item O=C(O)CCC[C@H](NC(=O)N[C@@H](CCCCNC(=O)[C@H](Cc1c2ccccc2cc2ccccc12)NC(=O)Cc1ccc(CNC(=O)CN2CCN(CC(=O)O)CCN(CC(=O)O)CCN(CC(=O)O)CC2)cc1)C(=O)O)C(=O)O [68Ga-HTK04036, metal not drawn] in your answer.
0.18

Name the recorded tissue uptake at 1 h of the item O=C(O)CCCCC(NC(=O)N[C@@H](CCCCNC(=O)[C@H](Cc1c2ccccc2cc2ccccc12)NC(=O)[C@H]1CC[C@H](CNC(=O)CN2CCN(CC(=O)O)CCN(CC(=O)O)CCN(CC(=O)O)CC2)CC1)C(=O)O)C(=O)O (single isomer, unassigned) [68Ga-HTK03189A, metal not drawn] in your answer.
0.2

Name the recorded tissue uptake at 1 h of the item O=C(O)CCC[C@H](NC(=O)N[C@@H](CCCCNC(=O)[C@H](Cc1c2ccccc2cc2ccccc12)NC(=O)[C@H]1CC[C@H](CNC(=O)CN2CCN(CC(=O)O)CCN(CC(=O)O)CCN(CC(=O)O)CC2)CC1)C(=O)O)C(=O)O [68Ga-HTK03149, metal not drawn] in your answer.
0.23

Name the recorded tissue uptake at 1 h of the item O=C(O)CN1CCN(CC(=O)O)CCN(CC(=O)NC[C@H]2CC[C@H](C(=O)N[C@@H](Cc3c4ccccc4cc4ccccc34)C(=O)NCCCC[C@H](NC(=O)N[C@@H](C[C@H](F)C(=O)O)C(=O)O)C(=O)O)CC2)CCN(CC(=O)O)CC1 [68Ga-HTK04040, metal not drawn] in your answer.
1.29
